test: ATG_NFI_CIS: Attagene CIS-FACTORIAL HepG2 Assay for human Nuclear Factor I (NFI) (AID 2282989); settings: HepG2 cis-regulatory reporter, NFI response element transcription; actives raise or lower the signal
Calls of active or inactive are those of the source. How the source made its calls: active means hit-call score of the fitted dose curve at least 0.9, where 1 is the maximum; inactive means score below 0.9.
Outcome codes: active, inactive

OCc1ccco1 :: inactive
NNC(=S)NN :: inactive
CC(C)OC(=O)Nc1ccccc1 :: inactive
ClC(Cl)=C(Cl)C(Cl)=C(Cl)Cl :: active

----------
Read-out: Intercellular Adhesion Molecule 1 (ICAM1), ICAM1 (gene 3383)
Assay: BSK_3C_ICAM1: BioMAP Diversity Plus: 3C Assay for Intercellular Adhesion Molecule 1 (ICAM1) Biomarker Activity (AID 2283003)
Conditions: primary human endothelial cells (HUVEC); actives raise or lower the signal
Description: BSK_3C is a cell-based, multiplexed-readout assay that uses umbilical vein endothelium, a human vascular primary cell, with measurements taken at 24 hours after chemical dosing in a 96-well plate.BSK_3C_ICAM1 is an assay component measured in the BSK_3C assay. It measures ICAM-1 antibody related to regulation of gene expression using ELISA technology.Data from the assay component BSK_3C_ICAM1 was analyzed into 1 assay endpoint. […]
Active and inactive are the calls of the source. The calls were made as follows: active = hit-call score of the fitted dose curve at least 0.9, where 1 is the maximum; inactive = score below 0.9.
Outcome codes: true = active, false = inactive

Nc1cccc2ccccc12 :: false
CCCCCCCCc1ccc(O)cc1 :: true
Oc1cccc2cccnc12 :: false
CCN1CCC2(CC1)COc1cc3c(cc12)N(C(=O)c1ccc(-c2ccc(-c4nnc(C)o4)cc2C)cc1)CC3 :: true

----------
read-out: CD38, CD38 (gene 952); experiment: BSK_SAg_CD38: BioMAP Diversity Plus: SAg Assay for CD38 Biomarker Activity (AID 2283087); conditions: primary human HUVEC with PBMC; actives raise or lower the signal
Activity calls are given as the source filed them. Rule for the calls: active = hit-call score of the fitted dose curve at least 0.9, where 1 is the maximum; inactive = score below 0.9.
Experimental readout: AC50

CC(=O)C(Cl)C(=O)N(C)C (configuration not stated) :: 20 µM (active)
C=C(C)C(=O)[O][Sn]([CH2]CCC)([CH2]CCC)[CH2]CCC :: 0.248 µM (active)
O=C(OC1CCCCC1)c1ccccc1C(=O)OC1CCCCC1 :: 33.3 µM (active)
O=C(Nc1ccc2[nH]ccc2c1)c1cc2cc(F)ccc2n1Cc1cccc(F)c1 :: 10.3 µM (active)
CCOP(=S)(OCC)Oc1nc(Cl)c(Cl)cc1Cl :: 32.3 µM (active)
CCCCC(CC)CO[N+](=O)[O-] (configuration not stated) :: inactive
ClC1(Cl)C2(Cl)C3(Cl)C4(Cl)C(Cl)(Cl)C5(Cl)C3(Cl)C1(Cl)C5(Cl)C24Cl (configuration not stated) :: inactive
COC(=O)Cc1ccccc1 :: inactive
COP(=S)(OC)Oc1ccc(S(=O)(=O)N(C)C)cc1 :: inactive
CCSC(C)CC1CC(=O)C(C(CC)=NOC/C=C/Cl)=C(O)C1 (configuration not stated) :: inactive
CC(C)c1ccc(CO)cc1 :: inactive
O=C(O)CCC(F)(C(F)(F)F)C(F)(F)F :: inactive

----------
assay: CCTE_Simmons_CellTiterGLO_HEK293T: Viability Assessment in CCTE's Assays for Thyroperoxidase (TPO) Inhibition, Simmons Lab (AID 2283665);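 further: cells exposed to compound for 24 h before readout; actives reduce ATP signal below DMSO vehicle meaning cytotoxicity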
Results filed as inconclusive are left out. The source made the active and inactive calls. Rule for the calls: active = hit-call score of the fitted dose curve at least 0.9, where 1 is the maximum; inconclusive = response in the unintended direction; inactive = score below 0.9.
Documented AC50 across a set of compounds
Experimental readout: AC50

CCOP(=S)(OCC)SCSP(=S)(OCC)OCC :: 46.6 µM (active)
Cc1ccc(N)cc1Cl :: 18.4 µM (active)
CC(C)(C)CC(C)(C)c1ccc(O)cc1 :: 9.53 µM (active)
O=C(Nc1ccc2[nH]ccc2c1)c1cc2cc(F)ccc2n1Cc1cccc(F)c1 :: 0.753 µM (active)
CCOC(=O)Nc1cccc(OC(=O)Nc2ccccc2)c1 :: 16.6 µM (active)
CCC(C)(C)c1ccc(O)c(C(C)(C)CC)c1 :: 0.847 µM (active)

Attribution: PubChem BioAssay (EPA / NIEHS)
